Source: paper PMC9569995

- Protocol Description: Lipophilicity determination by HPLC
- Type: physicochemical
- Test Parameters: HPLC C18, MeOH 72%/acetate-buffered saline pH 6.5 28%
Property: log D6.5
Answers are plain numbers.

The examples below pair each entry with its known result.
>>> assay_result("CCC[C@H](NC(=O)c1cc(Cl)ccc1O)C(=O)Nc1ccc(C(F)(F)F)cc1")
1.060
>>> assay_result("CCCC[C@H](NC(=O)c1cc(Cl)ccc1OCc1ccccc1)C(=O)Nc1ccc(C(F)(F)F)cc1")
1.954
>>> assay_result("CC(C)C[C@H](NC(=O)[C@H](Cc1ccccc1)NC(=O)c1cc(Cl)ccc1O)C(=O)Nc1ccc(C(F)(F)F)cc1")
1.528

# context switch: different compound, same log D6.5
According to the records, this compound CC(C)C[C@H](NC(=O)c1cc(Cl)ccc1O)C(=O)Nc1ccc(C(F)(F)F)cc1 displays log D6.5 of 1.256

###

Provide the recorded log k for the entries that follow.
- Protocol Description: Lipophilicity determination by HPLC
- Assay type: physicochemical
- Test Parameters: logarithm of capacity factor; HPLC C18, MeOH 72%/H2O 28%
Answers are plain numbers.

Before answering, review these 5 worked examples.
>>> assay_result("CC(C)C[C@H](NC(=O)[C@H](Cc1ccccc1)NC(=O)c1cc(Cl)ccc1OCc1ccccc1)C(=O)Nc1ccc(C(F)(F)F)cc1")
2.049
>>> assay_result("CC(C)C[C@H](NC(=O)c1cc(Cl)ccc1OCc1ccccc1)C(=O)Nc1ccc(C(F)(F)F)cc1")
1.975
>>> assay_result("CC(C)[C@H](NC(=O)c1cc(Cl)ccc1O)C(=O)Nc1ccc(C(F)(F)F)cc1")
1.081
>>> assay_result("CCCC[C@H](NC(=O)c1cc(Cl)ccc1O)C(=O)Nc1ccc(C(F)(F)F)cc1")
1.322
>>> assay_result("CC(C)C[C@H](NC(=O)c1cc(Cl)ccc1O)C(=O)Nc1ccc(C(F)(F)F)cc1")
1.266

Now turn to the next compound.
log k reported for this compound CC(C)C[C@H](NC(=O)c1cc(Cl)ccc1O)C(=O)N[C@@H](Cc1ccccc1)C(=O)Nc1ccc(C(F)(F)F)cc1 : 1.560

###

- Protocol Description: Lipophilicity determination by HPLC
- Format: physicochemical
- Test Parameters: HPLC C18, MeOH 72%/acetate-buffered saline pH 7.4 28%
Property: log D7.4
Answers are plain numbers.

>>> assay_result("CCCC[C@H](NC(=O)c1cc(Cl)ccc1O)C(=O)Nc1ccc(C(F)(F)F)cc1 [3d]")
1.213
>>> assay_result("CC(C)C[C@H](NC(=O)[C@H](Cc1ccccc1)NC(=O)c1cc(Cl)ccc1OCc1ccccc1)C(=O)Nc1ccc(C(F)(F)F)cc1 [5b]")
2.027
>>> assay_result("CCCC[C@H](NC(=O)c1cc(Cl)ccc1OCc1ccccc1)C(=O)Nc1ccc(C(F)(F)F)cc1 [2d]")
1.902
>>> assay_result("CSCC[C@H](NC(=O)c1cc(Cl)ccc1OCc1ccccc1)C(=O)Nc1ccc(C(F)(F)F)cc1 [2e]")
1.689
>>> assay_result("C[C@H](NC(=O)c1cc(Cl)ccc1O)C(=O)Nc1ccc(C(F)(F)F)cc1 [3a]")
0.759
>>> assay_result("O=C(N[C@@H](CC1CCCCC1)C(=O)Nc1ccc(C(F)(F)F)cc1)c1cc(Cl)ccc1O [3g]")
1.576
>>> assay_result("CC(C)C[C@H](NC(=O)[C@H](Cc1ccccc1)NC(=O)c1cc(Cl)ccc1O)C(=O)Nc1ccc(C(F)(F)F)cc1 [6b]")
1.453
>>> assay_result("CCC[C@H](NC(=O)c1cc(Cl)ccc1O)C(=O)Nc1ccc(C(F)(F)F)cc1 [3b]")
1.016
>>> assay_result("CC(C)C[C@H](NC(=O)c1cc(Cl)ccc1O)C(=O)N[C@@H](Cc1ccccc1)C(=O)Nc1ccc(C(F)(F)F)cc1 [6a]")
1.493
>>> assay_result("O=C(N[C@@H](Cc1ccccc1)C(=O)N[C@@H](Cc1ccccc1)C(=O)Nc1ccc(C(F)(F)F)cc1)c1cc(Cl)ccc1O [6c]")
1.495

Parameters: items (list). Returns: log D7.4 for each item.
1. O=C(N[C@@H](Cc1ccccc1)C(=O)Nc1ccc(C(F)(F)F)cc1)c1cc(Cl)ccc1OCc1ccccc1 [2h]
2. O=C(N[C@@H](Cc1ccccc1)C(=O)Nc1ccc(C(F)(F)F)cc1)c1cc(Cl)ccc1O [3h]
3. O=C(N[C@@H](CC1CCCCC1)C(=O)Nc1ccc(C(F)(F)F)cc1)c1cc(Cl)ccc1OCc1ccccc1 [2g]
4. CC(C)[C@H](NC(=O)c1cc(Cl)ccc1OCc1ccccc1)C(=O)Nc1ccc(C(F)(F)F)cc1 [2c]
5. CC(C)C[C@H](NC(=O)c1cc(Cl)ccc1O)C(=O)Nc1ccc(C(F)(F)F)cc1 [3f]
6. C[C@H](NC(=O)c1cc(Cl)ccc1OCc1ccccc1)C(=O)Nc1ccc(C(F)(F)F)cc1 [2a]

OUT:
1.871
1.043
1.746
1.697
1.161
1.474

###

- Test system: methicillin-resistant S. aureus 63718
- Protocol Description: In vitro antibacterial evaluation, MIC by microtitration broth method
- Test Parameters: Staphylococcus aureus, 24 h
Property: MIC (µM)
Give bare numbers, in µM.

Known results for molecules:
>>> assay_result("CCCC[C@H](NC(=O)c1cc(Cl)ccc1O)C(=O)Nc1ccc(C(F)(F)F)cc1")
4.66
>>> assay_result("CC(C)C[C@H](NC(=O)c1cc(Cl)ccc1O)C(=O)Nc1ccc(C(F)(F)F)cc1")
0.07
>>> assay_result("O=C(N[C@@H](CC1CCCCC1)C(=O)Nc1ccc(C(F)(F)F)cc1)c1cc(Cl)ccc1O")
2.13
>>> assay_result("CC(C)C[C@H](NC(=O)[C@H](Cc1ccccc1)NC(=O)c1cc(Cl)ccc1O)C(=O)Nc1ccc(C(F)(F)F)cc1")
444
>>> assay_result("CC(C)[C@H](NC(=O)c1cc(Cl)ccc1O)C(=O)Nc1ccc(C(F)(F)F)cc1")
4.82

Value sought for every listed molecule: MIC.
1. CC(C)C[C@H](NC(=O)c1cc(Cl)ccc1O)C(=O)N[C@@H](Cc1ccccc1)C(=O)Nc1ccc(C(F)(F)F)cc1
2. CSCC[C@H](NC(=O)c1cc(Cl)ccc1O)C(=O)Nc1ccc(C(F)(F)F)cc1
3. O=C(N[C@@H](Cc1ccccc1)C(=O)Nc1ccc(C(F)(F)F)cc1)c1cc(Cl)ccc1O
4. CC1(C)S[C@@H]2[C@H](NC(=O)[C@H](N)c3ccccc3)C(=O)N2[C@H]1C(=O)O [APC, ampicillin, reference compound]

OUT:
[444, 8.95, 0.27, 45.8]

###

Hi there, I'd appreciate the recorded log D6.5 for every entry that follows.
- Protocol Description: Lipophilicity determination by HPLC
- Type: physicochemical
- Test Parameters: HPLC C18, MeOH 72%/acetate-buffered saline pH 6.5 28%
Answers are plain numbers.

Example results:
>>> assay_result("O=C(N[C@@H](Cc1ccccc1)C(=O)Nc1ccc(C(F)(F)F)cc1)c1cc(Cl)ccc1O")
1.148
>>> assay_result("O=C(N[C@@H](Cc1ccccc1)C(=O)N[C@@H](Cc1ccccc1)C(=O)Nc1ccc(C(F)(F)F)cc1)c1cc(Cl)ccc1OCc1ccccc1")
2.062
>>> assay_result("CSCC[C@H](NC(=O)c1cc(Cl)ccc1O)C(=O)Nc1ccc(C(F)(F)F)cc1")
1.021
>>> assay_result("CCCC[C@H](NC(=O)c1cc(Cl)ccc1O)C(=O)Nc1ccc(C(F)(F)F)cc1")
1.247
>>> assay_result("CC(C)[C@H](NC(=O)c1cc(Cl)ccc1OCc1ccccc1)C(=O)Nc1ccc(C(F)(F)F)cc1")
1.711

Would you mind listing log D6.5 for each of the following molecules?
1. O=C(N[C@@H](CC1CCCCC1)C(=O)Nc1ccc(C(F)(F)F)cc1)c1cc(Cl)ccc1OCc1ccccc1
2. CC(C)C[C@H](NC(=O)c1cc(Cl)ccc1OCc1ccccc1)C(=O)N[C@@H](Cc1ccccc1)C(=O)Nc1ccc(C(F)(F)F)cc1
3. CC(C)C[C@H](NC(=O)[C@H](Cc1ccccc1)NC(=O)c1cc(Cl)ccc1OCc1ccccc1)C(=O)Nc1ccc(C(F)(F)F)cc1
4. CCC[C@H](NC(=O)c1cc(Cl)ccc1OCc1ccccc1)C(=O)Nc1ccc(C(F)(F)F)cc1
5. CC(C)[C@H](NC(=O)c1cc(Cl)ccc1O)C(=O)Nc1ccc(C(F)(F)F)cc1

OUT:
1: 1.767; 2: 1.998; 3: 1.994; 4: 1.742; 5: 0.973

###

- Test system: Enterococcus faecalis ATCC 29212
- Protocol Description: Determination of minimum bactericidal concentrations (agar aliquot subculture)
- Test Parameters: ATCC29212
Property: MBC (µM)
Give bare numbers, in µM.

Take a look at these entries with their results.
>>> assay_result("CC(C)[C@H](NC(=O)c1cc(Cl)ccc1O)C(=O)Nc1ccc(C(F)(F)F)cc1")
38.6
>>> assay_result("CC(C)C[C@H](NC(=O)c1cc(Cl)ccc1O)C(=O)Nc1ccc(C(F)(F)F)cc1")
9.33
>>> assay_result("CSCC[C@H](NC(=O)c1cc(Cl)ccc1O)C(=O)Nc1ccc(C(F)(F)F)cc1")
35.8

// next item, MBC requested
The reported value for CC1(C)S[C@@H]2[C@H](NC(=O)[C@H](N)c3ccccc3)C(=O)N2[C@H]1C(=O)O [APC, ampicillin, reference compound] in terms of MBC is 2.81
